- Measurement target: Mas-related G-protein coupled receptor member X1 (Mus musculus, UniProt Q8CIP3)
- Sequence (Q8CIP3 whole entry): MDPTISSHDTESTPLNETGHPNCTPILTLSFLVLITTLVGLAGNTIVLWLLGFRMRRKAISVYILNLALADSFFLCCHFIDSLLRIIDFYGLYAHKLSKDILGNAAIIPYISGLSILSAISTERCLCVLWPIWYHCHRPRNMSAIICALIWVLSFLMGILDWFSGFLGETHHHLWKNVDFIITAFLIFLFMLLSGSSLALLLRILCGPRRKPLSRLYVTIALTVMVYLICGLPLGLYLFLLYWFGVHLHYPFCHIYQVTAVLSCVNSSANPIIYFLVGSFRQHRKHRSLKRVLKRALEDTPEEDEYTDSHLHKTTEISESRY
- Protocol text: Agonist activity at mouse MrgC11 transfected in HEK293 cells by FLIPR assay
Square brackets hold non-standard residues; d marks the D form. Peptide text beside a SMILES is read from it. dPhe(4-guanidino) = N=C(N)Nc1ccc(C[C@@H](N)C(=O)O)cc1; Phe(4-guanidino) = N=C(N)Nc1ccc(C[C@H](N)C(=O)O)cc1
Hi! Could you tag entries with EC50 below 8000 nM as 1 (yes), and those at or above as 0 (no)? Much appreciated.

{"Compound": "N=C(N)Nc1ccc(C[C@@H](N)C(=O)N[C@@H](Cc2ccccc2)C(N)=O)cc1 (H-[dPhe(4-guanidino)]-Phe-NH2)", "Measurement target": "Mas-related G-protein coupled receptor member X1 (Mus musculus, UniProt Q8CIP3)", "Category": "1 (yes)"}
{"Compound": "N=C(N)N1CCC(C(N)C(=O)N[C@@H](Cc2ccccc2)C(N)=O)CC1 (stereo partly specified)", "Measurement target": "Mas-related G-protein coupled receptor member X1 (Mus musculus, UniProt Q8CIP3)", "Category": "1 (yes)"}
{"Compound": "N=C(N)NC[C@@H]1CN[C@H](C(=O)N[C@@H](Cc2ccccc2)C(N)=O)C1", "Measurement target": "Mas-related G-protein coupled receptor member X1 (Mus musculus, UniProt Q8CIP3)", "Category": "1 (yes)"}
{"Compound": "N=C(N)Nc1ccc(C[C@H](N)C(=O)N[C@@H](Cc2ccccc2)C(N)=O)cc1 (H-[Phe(4-guanidino)]-Phe-NH2)", "Measurement target": "Mas-related G-protein coupled receptor member X1 (Mus musculus, UniProt Q8CIP3)", "Category": "0 (no)"}

---

Item-by-item account of EC50
- Measurement target: Mas-related G-protein coupled receptor member X1 (Homo sapiens, UniProt Q96LB2)
- Sequence (Q96LB2 whole entry): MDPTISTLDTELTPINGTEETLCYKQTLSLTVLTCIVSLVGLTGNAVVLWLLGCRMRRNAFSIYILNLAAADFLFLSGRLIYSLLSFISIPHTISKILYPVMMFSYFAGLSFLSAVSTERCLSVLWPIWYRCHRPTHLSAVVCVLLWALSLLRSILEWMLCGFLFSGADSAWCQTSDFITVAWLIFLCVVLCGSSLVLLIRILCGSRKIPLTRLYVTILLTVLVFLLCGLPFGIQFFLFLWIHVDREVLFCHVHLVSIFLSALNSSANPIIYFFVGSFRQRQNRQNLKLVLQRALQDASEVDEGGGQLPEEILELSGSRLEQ
- Protocol text: Agonist activity at human MrgX1 transfected in HEK293 cells by FLIPR assay
Square brackets hold non-standard residues; d marks the D form. Peptide text beside a SMILES is read from it. dPhe(4-guanidino) = N=C(N)Nc1ccc(C[C@@H](N)C(=O)O)cc1; Phe(4-guanidino) = N=C(N)Nc1ccc(C[C@H](N)C(=O)O)cc1

{"Molecule": "N=C(N)Nc1ccc(C[C@@H](N)C(=O)N[C@@H](Cc2ccccc2)C(N)=O)cc1 (H-[dPhe(4-guanidino)]-Phe-NH2)", "EC50": "> 100 µM"}
{"Molecule": "N=C(N)NC[C@@H]1CN[C@H](C(=O)N[C@@H](Cc2ccccc2)C(N)=O)C1", "EC50": "> 100 µM"}
{"Molecule": "N=C(N)Nc1ccc(C[C@H](N)C(=O)N[C@@H](Cc2ccccc2)C(N)=O)cc1 (H-[Phe(4-guanidino)]-Phe-NH2)", "EC50": "> 100 µM"}
{"Molecule": "COc1ccc(-c2ccc(C(=O)Nc3cccc(Cn4ncc(N5CCNCC5)cc4=O)c3C)cc2)cn1", "EC50": "0.0251 µM"}
{"Molecule": "N=C(N)N[C@@H]1CN[C@H](C(=O)N[C@@H](Cc2ccccc2)C(N)=O)C1", "EC50": "> 100 µM"}
{"Molecule": "N=C(N)N1CCC(C(N)C(=O)N[C@@H](Cc2ccccc2)C(N)=O)CC1 (stereo partly specified)", "EC50": "> 100 µM"}
